- assay.comment: Semi-quantitative solubility of zolpidem tartrate in different cyclodextrin solutions (Example 1)
- Assay type: physicochemical
- recorded.conditions: aqueous cyclodextrin solution, aqueous with cosolvent or surfactant or cyclodextrin, thermodynamic from solid, SBE-CD 400 mg/ml, room temperature
- Experimental: A semi-quantitative comparison was made of the ability of different cyclodextrins to enhance the aqueous solubility of zolpidem tartrate. Aqueous solutions were prepared containing 200, 300 and 400 mg/ml of three types of cyclodextrin. These were hydroxypropyl-β-cyclodextrin (HP-CD) (Cavamax® W7 HP Pharma, Wacker, Germany), methylated-β-cyclodextrin (M-CD) (Cavamax® W7 M Pharma, Wacker) and sulfobutylether-β-cyclodextrin (SBE-CD) (Captisol®, CyDex, USA). […]
Counter-ions that a name gives are not always drawn.

# compound, solubility
measured = [
    ("Cc1ccc(-c2nc3ccc(C)cn3c2CC(=O)N(C)C)cc1 [zolpidem tartrate]", "~60 mg/mL"),
]

* * *

- assay.comment: Saturated solubility of zolpidem tartrate in SBE-CD solutions with and without chitosan, UV 296 nm (Example 2)
- Type: physicochemical
- recorded.conditions: aqueous SBE-CD solution, 18 °C, aqueous with cosolvent or surfactant or cyclodextrin, thermodynamic from solid, SBE-CD 200 mg/ml, 5 mg/ml chitosan glutamate, read-out: Zolpidem tartrate solubility in presence of 5 mg/ml chitosan glutamate
Structures can show the parent of a compound that is named as a salt.

# compound, unit.descriptor, solubility
records = [
    ("Cc1ccc(-c2nc3ccc(C)cn3c2CC(=O)N(C)C)cc1 [zolpidem tartrate]", "mg/mL", 55.6),
]

* * *

- assay.comment: Semi-quantitative solubility of zolpidem tartrate in different cyclodextrin solutions (Example 1)
- Format: physicochemical
- recorded.conditions: aqueous cyclodextrin solution, aqueous with cosolvent or surfactant or cyclodextrin, thermodynamic from solid, M-CD 300 mg/ml, room temperature
Structures can show the parent of a compound that is named as a salt.

# compound, solubility
rows = [
    ("Cc1ccc(-c2nc3ccc(C)cn3c2CC(=O)N(C)C)cc1 [zolpidem tartrate]", "31 to 36 mg/mL"),
]

* * *

- assay.comment: Pharmacokinetic performance of intranasal and IV zolpidem formulations in sheep (Example 6)
- recorded.conditions: female, plasma, inhaled or intranasal, 20 mg, Tmax, intranasal, zolpidem dose 20 mg, mean n = 5
measured.quantity: Tmax (min)

# item.smiles, value.measured
records = [
    ("Cc1ccc(-c2nc3ccc(C)cn3c2CC(=O)N(C)C)cc1", 13),
]

* * *

- assay.comment: Saturated solubility of zolpidem tartrate in SBE-CD solutions with and without chitosan, UV 296 nm (Example 2)
- Format: physicochemical
- recorded.conditions: aqueous SBE-CD solution, 18 °C, aqueous with cosolvent or surfactant or cyclodextrin, thermodynamic from solid, SBE-CD 100 mg/ml, no chitosan, read-out: Zolpidem tartrate solubility
Where a name gives a salt, the structure may show the parent alone.
measured.quantity: solubility (mg/mL)

# compound, measured.quantity, unit.descriptor, value.measured
records = [
    ("Cc1ccc(-c2nc3ccc(C)cn3c2CC(=O)N(C)C)cc1 [zolpidem tartrate]", "solubility", "mg/mL", 41.9),
]

* * *

- assay.comment: Saturated solubility of zolpidem tartrate in SBE-CD solutions with and without chitosan, UV 296 nm (Example 2)
- Format: physicochemical
- recorded.conditions: aqueous SBE-CD solution, 18 °C, aqueous with cosolvent or surfactant or cyclodextrin, thermodynamic from solid, SBE-CD 300 mg/ml, 5 mg/ml chitosan glutamate, read-out: Zolpidem tartrate solubility in presence of 5 mg/ml chitosan glutamate
Where a name gives a salt, the structure may show the parent alone.
measured.quantity: solubility (mg/mL)

# molecule, measured.quantity, value.measured
rows = [
    ("Cc1ccc(-c2nc3ccc(C)cn3c2CC(=O)N(C)C)cc1 [zolpidem tartrate]", "solubility", 63.7),
]

* * *

- assay.comment: Saturated solubility of zolpidem tartrate in SBE-CD solutions with and without chitosan, UV 296 nm (Example 2)
- Type: physicochemical
- recorded.conditions: aqueous SBE-CD solution, 18 °C, aqueous with cosolvent or surfactant or cyclodextrin, thermodynamic from solid, SBE-CD 150 mg/ml, no chitosan, read-out: Zolpidem tartrate solubility
Structures can show the parent of a compound that is named as a salt.
measured.quantity: solubility (mg/mL)

# compound, value.measured
records = [
    ("Cc1ccc(-c2nc3ccc(C)cn3c2CC(=O)N(C)C)cc1 [zolpidem tartrate]", 46.5),
]

* * *

- assay.comment: Semi-quantitative solubility of zolpidem tartrate in different cyclodextrin solutions (Example 1)
- Type: physicochemical
- recorded.conditions: aqueous cyclodextrin solution, aqueous with cosolvent or surfactant or cyclodextrin, thermodynamic from solid, M-CD 400 mg/ml, room temperature
- Protocol: A semi-quantitative comparison was made of the ability of different cyclodextrins to enhance the aqueous solubility of zolpidem tartrate. Aqueous solutions were prepared containing 200, 300 and 400 mg/ml of three types of cyclodextrin. These were hydroxypropyl-β-cyclodextrin (HP-CD) (Cavamax® W7 HP Pharma, Wacker, Germany), methylated-β-cyclodextrin (M-CD) (Cavamax® W7 M Pharma, Wacker) and sulfobutylether-β-cyclodextrin (SBE-CD) (Captisol®, CyDex, USA). […]
Structures can show the parent of a compound that is named as a salt.

# compound, solubility
data = [
    ("Cc1ccc(-c2nc3ccc(C)cn3c2CC(=O)N(C)C)cc1 [zolpidem tartrate]", "31 to 36 mg/mL"),
]

* * *

- assay.comment: Saturated solubility of zolpidem tartrate in SBE-CD solutions with and without chitosan, UV 296 nm (Example 2)
- Assay type: physicochemical
- recorded.conditions: aqueous SBE-CD solution, 18 °C, aqueous with cosolvent or surfactant or cyclodextrin, thermodynamic from solid, SBE-CD 400 mg/ml, 5 mg/ml chitosan glutamate, read-out: Zolpidem tartrate solubility in presence of 5 mg/ml chitosan glutamate
Structures can show the parent of a compound that is named as a salt.

# compound, solubility (mg/mL)
measured = [
    ("Cc1ccc(-c2nc3ccc(C)cn3c2CC(=O)N(C)C)cc1 [zolpidem tartrate]", 68.1),
]

* * *

- assay.comment: Saturated solubility of zolpidem tartrate in SBE-CD solutions with and without chitosan, UV 296 nm (Example 2)
- Assay type: physicochemical
- recorded.conditions: aqueous SBE-CD solution, 18 °C, aqueous with cosolvent or surfactant or cyclodextrin, thermodynamic from solid, SBE-CD 200 mg/ml, no chitosan, read-out: Zolpidem tartrate solubility
Structures can show the parent of a compound that is named as a salt.
measured.quantity: solubility (mg/mL)

# molecule, measured.quantity, value.measured
rows = [
    ("Cc1ccc(-c2nc3ccc(C)cn3c2CC(=O)N(C)C)cc1 [zolpidem tartrate]", "solubility", 57.3),
]

* * *

- assay.comment: Saturated solubility of zolpidem tartrate in SBE-CD solutions with and without chitosan, UV 296 nm (Example 2)
- Assay type: physicochemical
- recorded.conditions: aqueous SBE-CD solution, 18 °C, aqueous with cosolvent or surfactant or cyclodextrin, thermodynamic from solid, SBE-CD 400 mg/ml, no chitosan, read-out: Zolpidem tartrate solubility
Counter-ions that a name gives are not always drawn.
measured.quantity: solubility

# compound, value.measured
data = [
    ("Cc1ccc(-c2nc3ccc(C)cn3c2CC(=O)N(C)C)cc1 [zolpidem tartrate]", "69 mg/mL"),
]

* * *

- assay.comment: Saturated solubility of zolpidem tartrate in SBE-CD solutions with and without chitosan, UV 296 nm (Example 2)
- Format: physicochemical
- recorded.conditions: aqueous SBE-CD solution, 18 °C, aqueous with cosolvent or surfactant or cyclodextrin, thermodynamic from solid, SBE-CD 300 mg/ml, no chitosan, read-out: Zolpidem tartrate solubility
Where a name gives a salt, the structure may show the parent alone.

# compound, solubility / mg/mL
rows = [
    ("Cc1ccc(-c2nc3ccc(C)cn3c2CC(=O)N(C)C)cc1 [zolpidem tartrate]", 57.5),
]
